Target Entity: Msep5-HT7S receptor (Mythimna separata, UniProt A0AAD7YHG5, DEL320-414)
Sequence (A0AAD7YHG5 entry or part of it DEL320-414): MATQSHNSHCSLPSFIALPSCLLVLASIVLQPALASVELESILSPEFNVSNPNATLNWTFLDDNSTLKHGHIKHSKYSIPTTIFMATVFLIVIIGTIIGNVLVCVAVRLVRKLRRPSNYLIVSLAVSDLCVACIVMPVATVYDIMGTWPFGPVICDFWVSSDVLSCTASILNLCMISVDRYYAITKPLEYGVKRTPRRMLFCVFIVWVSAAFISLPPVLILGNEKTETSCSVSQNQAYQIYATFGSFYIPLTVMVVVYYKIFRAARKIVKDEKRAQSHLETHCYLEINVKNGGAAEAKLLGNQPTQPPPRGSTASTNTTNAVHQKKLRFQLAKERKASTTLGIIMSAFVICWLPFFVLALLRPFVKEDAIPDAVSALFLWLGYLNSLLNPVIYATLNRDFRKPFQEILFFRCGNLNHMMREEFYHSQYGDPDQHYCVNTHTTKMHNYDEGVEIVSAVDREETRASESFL
Method Description: cell-based
Type: cell-based
Condition Details: 5-HT7S, cAMP production, HEK-293 cells; read-out: EC50

Compound	EC50
CC(N)Cc1c[nH]c2ccc(O)cc12.O=C(O)/C=C\C(=O)O (stereo not drawn) [αm-5-HT, α-methylserotonin maleate]	5.9 µM

* * *

Target Entity: UniProt A0AAD7YHG5
Method Description: cAMP assay, antagonist block of 5-HT-induced response in HEK293 cells expressing Msep5-HT7L
Type: cell-based
Condition Details: logIC50 (Mean ± SEM), 5-HT7L, against 5 μM 5-HT; given as negative log value
pIC50: −log10 of the molar value. Counter-ions that a name gives are not always drawn.
Listing of recorded pIC50 by entry.

Molecule	pIC50
O=C(c1ccc(F)cc1)C1CCN(CCn2c(=O)[nH]c3ccccc3c2=O)CC1 [Ketanserin]	4.33
CSc1ccc2c(c1)C(N1CCN(C)CC1)Cc1ccccc1S2 (stereo not shown) [Methiothepin, methiothepin mesylate]	4.06
Cc1cccc(S(=O)(=O)N(C)[C@H](C)CCN2CCC(C)CC2)c1 [SB-258719]	4.26
CC1CCN(CC[C@H]2CCCN2S(=O)(=O)c2cccc(O)c2)CC1 [SB-269970]	4.15
